Assay: Log D determination
Type: physicochemical
Conditions: octanol / phosphate buffer pH 7.4; read-out: partition coefficient (Log D)
measurement-kind: logD
When you answer, write just the number.

Provide measured logD value, entry: [11CH3]N(Cc1ccc(/C=C/C(=O)NO)cc1)CC12CC3CCC(CC(C3)C1)C2 [[11C]CN133]
2.03

====

Consider compounds characterized by their pIC50 with HDAC7 (Homo sapiens (Human), UniProt Q8WUI4).
Sequence (Q8WUI4 whole entry): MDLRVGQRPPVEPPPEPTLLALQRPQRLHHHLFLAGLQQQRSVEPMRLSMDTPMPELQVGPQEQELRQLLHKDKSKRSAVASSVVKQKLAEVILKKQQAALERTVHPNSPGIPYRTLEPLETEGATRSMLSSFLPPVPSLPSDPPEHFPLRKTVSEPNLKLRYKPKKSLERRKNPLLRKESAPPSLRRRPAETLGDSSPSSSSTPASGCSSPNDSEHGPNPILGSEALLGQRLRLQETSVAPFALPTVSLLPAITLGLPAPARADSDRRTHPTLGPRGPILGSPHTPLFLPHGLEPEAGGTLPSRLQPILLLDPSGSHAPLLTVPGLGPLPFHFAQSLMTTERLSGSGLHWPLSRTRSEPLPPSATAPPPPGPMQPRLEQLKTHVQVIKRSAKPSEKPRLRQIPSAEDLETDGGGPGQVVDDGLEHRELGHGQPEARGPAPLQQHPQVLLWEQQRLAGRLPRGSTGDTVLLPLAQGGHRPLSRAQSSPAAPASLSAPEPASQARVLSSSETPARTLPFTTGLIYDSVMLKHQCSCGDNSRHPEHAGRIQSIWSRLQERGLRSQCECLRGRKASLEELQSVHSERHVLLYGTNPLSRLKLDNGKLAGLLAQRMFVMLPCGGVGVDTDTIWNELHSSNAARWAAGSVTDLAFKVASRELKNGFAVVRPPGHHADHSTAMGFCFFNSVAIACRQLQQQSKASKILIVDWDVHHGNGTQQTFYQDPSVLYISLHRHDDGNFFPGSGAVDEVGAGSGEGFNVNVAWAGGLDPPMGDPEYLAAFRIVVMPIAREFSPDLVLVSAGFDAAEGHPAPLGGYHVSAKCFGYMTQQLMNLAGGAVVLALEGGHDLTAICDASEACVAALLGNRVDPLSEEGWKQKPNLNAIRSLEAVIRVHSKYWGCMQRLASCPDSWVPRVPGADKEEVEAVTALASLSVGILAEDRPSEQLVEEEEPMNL
Keep it numeric: pIC50 is minus log10 of the concentration in mol/L.

chemical_structure=CN(Cc1ccc2c(c1)CCC(C(=O)NO)=C2)CC12CC3CC(CC(C3)C1)C2 system="HDAC7 (Homo sapiens (Human), UniProt Q8WUI4)" value_measured=5.26

Continue with the compound presented below.
Find the measured pIC50 of Cn1cc(CCNCc2ccc(/C=C/C(=O)NO)cc2)c2ccccc21 with HDAC7 (Homo sapiens (Human), UniProt Q8WUI4) as test system.
5.69
